assay.explanation: Inhibition of SERCA in human HeLa cells assessed as increase in cytosolic calcium level measured over 300 secs by Fluo-4 NW dye based FLIPR analysis
Assay type: cell-based
pIC50: −log10 of the molar value.
test.readout: pIC50

CCCCCCCC(=O)O[C@H]1[C@H]2C(=C(C)[C@@H]1OC(=O)c1sccc1C)[C@@H]1OC(=O)[C@@](C)(O)[C@@]1(O)[C@@H](OC(=O)CCC)C[C@]2(C)OC(C)=O = 6.92 to 7.52

Asked: What does the record list as pIC50 for "CCCCCCCC(=O)O[C@H]1[C@H]2C(=C(C)[C@@H]1OC(=O)c1cccs1)[C@@H]1OC(=O)[C@@](C)(O)[C@@]1(O)[C@@H](OC(=O)CCC)C[C@]2(C)OC(C)=O" ?
Given back: 6.93 to 7.15

Asked: What does the record list as pIC50 for "C/C=C(/C)C(=O)O[C@H]1C(C)=C2[C@H]([C@@H]1OC(=O)CCCCC)[C@@](C)(OC(C)=O)C[C@H](OC(=O)CCC)[C@@]1(O)[C@H]2OC(=O)[C@@]1(C)O" ?
Given back: 7.05 to 7.14

Asked: What does the record list as pIC50 for "C/C=C(/C)C(=O)O[C@H]1C(C)=C2[C@H]([C@@H]1OC(=O)CCCCCCC)[C@@](C)(OC(C)=O)C[C@H](OC(=O)[C@@H](C)CC)[C@@]1(O)[C@H]2OC(=O)[C@@]1(C)O" ?
Given back: 6.53 to 6.66
